ASSAY PROTOCOL: gradient 5% acetonitrile 3 min, to 50% in 2 min, to 85% in 15 min, held 3 min, 100 µL/min
PROTOCOL CONDITIONS: column: Zorbax Extend-C18 2.1 x 50 mm; eluents: water / acetonitrile, 0.1% formic acid
QUANTITY MEASURED: RP-LC retention time

- COMPOUND: "CCN(CC)C(=O)c1cc(C)nc2c1c(=O)n(Cc1ccccc1)c(=O)n2C"
  QUANTITY MEASURED: "RP-LC retention time"
  RESULT: "884 s"
- COMPOUND: "COc1ccc(Cn2nc3c(S(=O)(=O)N4CCN(c5ccc(F)cc5)CC4)cccn3c2=O)cc1"
  QUANTITY MEASURED: "RP-LC retention time"
  RESULT: "905 s"
- COMPOUND: "O=C(Cn1cnc(-c2noc(-c3ccc(F)cc3)n2)c1)NCc1ccc(Cl)cc1"
  QUANTITY MEASURED: "RP-LC retention time"
  RESULT: "917 s"
- COMPOUND: "O=C(Cn1c(=O)c2cccn2c2ccccc21)Nc1cccc(Cl)c1"
  QUANTITY MEASURED: "RP-LC retention time"
  RESULT: "904 s"
- COMPOUND: "CCN1C(=O)C(C)(C(=O)Nc2ccc(OC)c(Cl)c2)Oc2cccnc21 (configuration not stated)"
  QUANTITY MEASURED: "RP-LC retention time"
  RESULT: "895 s"
- COMPOUND: "Cc1csc(-c2csc(S(=O)(=O)NCc3cccs3)c2)n1"
  QUANTITY MEASURED: "RP-LC retention time"
  RESULT: "907 s"
- COMPOUND: "CCOc1ccc(-c2noc(CN3N=NC4C(=O)N(c5cccc(F)c5)C(=O)C43)n2)cc1OC (configuration not stated)"
  QUANTITY MEASURED: "RP-LC retention time"
  RESULT: "926 s"
